Data origin, for the record: ChEMBL document CHEMBL5523694

tested on: NCI-H358; test: Antiproliferative activity against human NCI-H358 cells harbouring KRAS G12C mutant by CellTiter-Glo assay; type: functional, cell-based

{"smiles representation": "C=CC(=O)N1CCN(c2ncnc3c(=O)n(-c4c(O)cccc4F)c(C(F)(F)F)cc23)CC1", "IC50": "5.36 µM"}

* * *

Each entry below carries its recorded IC50.
target: GTPase KRas (Homo sapiens, UniProt P01116, G12C); assay: Inhibition of KRAS G12C mutant in human NCI-H358 cells measured after 6 hrs; type: cell-based
Sequence (P01116 whole entry G12C): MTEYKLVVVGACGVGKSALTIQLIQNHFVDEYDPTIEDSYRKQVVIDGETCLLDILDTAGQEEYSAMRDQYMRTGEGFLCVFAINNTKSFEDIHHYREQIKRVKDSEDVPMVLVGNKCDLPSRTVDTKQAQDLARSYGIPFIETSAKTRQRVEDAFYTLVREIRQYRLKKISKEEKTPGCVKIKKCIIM
metric: IC50 (µM)

{"molecule": "C=CC(=O)N1CCN(c2nc(N3CC(N(C)C)C3)nc3c2C[C@@H](C)C(c2c(C)c(Cl)cc4[nH]ncc24)C3)CC1 (some centres not stated)", "assayed target": "GTPase KRas (Homo sapiens, UniProt P01116, G12C)", "metric": "IC50", "reported measurement": 0.102}
{"molecule": "C=CC(=O)N1CCN(c2nc(N3CC(N(C)C)C3)nc3c2C[C@@H](C)[C@H](c2c(Cl)c(C)cc4[nH]ccc24)C3)C[C@H]1C", "assayed target": "GTPase KRas (Homo sapiens, UniProt P01116, G12C)", "metric": "IC50", "reported measurement": 0.064}
